Test system: G401
Assay: relative viability vs DMSO control (72 h) (fraction); higher = more viable cells
Conditions: 0.3704 µM
Would you mind telling me the reported relative viability of each entry?

Reference set, count: 4
ENTRY_SMILES: C#Cc1cccc(Nc2ncnc3cc(OCCOC)c(OCCOC)cc23)c1
relative viability: 1.05
//
ENTRY_SMILES: COc1cc2ncnc(Nc3ccc(F)c(Cl)c3)c2cc1NC(=O)/C=C/CN1CCCCC1
relative viability: 0.997
//
ENTRY_SMILES: Cc1cccc(-c2[nH]c(CNc3ccccc3F)nc2-c2ccc3ncnn3c2)n1
relative viability: 0.978
//
ENTRY_SMILES: Cc1ccc(C(=O)OCc2ccc([C@@H](CN)C(=O)Nc3ccc4cnccc4c3)cc2)c(C)c1
relative viability: 0.973

Consider the record given below.
relative viability in this record for CCCS(=O)(=O)N[C@H]1C[C@@H](N(C)c2ncnc3[nH]ccc23)C1 : 1.01

---

Would you mind telling me the reported relative viability of each entry?
Tested on: SK-ES-1
Assay: relative viability vs DMSO control (72 h) (fraction); higher = more viable cells
Conditions: 0.00457 µM

COMPOUND: COc1cc2nccc(Oc3ccc(NC(=O)NC4CC4)c(Cl)c3)c2cc1C(N)=O [Lenvatinib]
relative viability: 0.958

Count: 2. Required value per item: relative viability.
1. CNC(=O)c1cc(Oc2ccc(NC(=O)Nc3ccc(Cl)c(C(F)(F)F)c3)cc2)ccn1 [Sorafenib]
2. N#CCC1(n2cc(-c3ncnc4[nH]ccc34)cn2)CN(C2CCN(C(=O)c3ccnc(C(F)(F)F)c3F)CC2)C1 [Itacitinib]

Output:
[1.05, 1.05]

Count: 6. Required value per item: relative viability.
1. COc1cc2nccc(Oc3ccc(NC(=O)C4(C(=O)Nc5ccc(F)cc5)CC4)cc3)c2cc1OC [Cabozantinib]
2. NC(=O)c1cccc2cn(-c3ccc([C@@H]4CCCNC4)cc3)nc12 [Niraparib]
3. CC[C@@H]1C(=O)N(C)c2cnc(Nc3ccc(C(=O)N[C@H]4CC[C@H](N5CCN(CC6CC6)CC5)CC4)cc3OC)nc2N1C(C)C [Volasertib]
4. C1=N/C2=N/c3ccc(OCCN4CCCC4)c(c3)COC/C=C/COCc3cccc(c3)C(=C1)N2 [Pacritinib]
5. FC(F)(F)c1ccc(CNc2ccc(Cc3c[nH]c4ncc(Cl)cc34)cn2)cn1 [Pexidartinib]
6. C[C@@H](Oc1cc(-c2cnn(C3CCNCC3)c2)cnc1N)c1c(Cl)ccc(F)c1Cl [Crizotinib]

Output:
0.986
1.01
1.1
1.02
1.07
1.05

---

Test system: HS729
Assay: relative viability vs DMSO control (72 h) (fraction); higher = more viable cells
Conditions: 0.3704 µM
PROPERTY: relative viability
Answers are plain numbers.

Reference set, count: 2
ENTRY_SMILES: C=CC(=O)Nc1cc(Nc2nccc(-c3cn(C)c4ccccc34)n2)c(OC)cc1N(C)CCN(C)C
relative viability: 0.822
//
ENTRY_SMILES: FC(F)(F)c1ccc(CNc2ccc(Cc3c[nH]c4ncc(Cl)cc34)cn2)cn1
relative viability: 0.902

Count: 5. Required value per item: relative viability.
1. C[C@@H]1COC(Nc2ccc3ncnc(Nc4ccc(OCc5nccs5)c(Cl)c4)c3c2)=N1
2. CN(C)C[C@@H]1CCn2cc(c3ccccc32)C2=C(C(=O)NC2=O)c2cn(c3ccccc23)CCO1
3. C[C@@H](Oc1cc(-c2cnn(C3CCNCC3)c2)cnc1N)c1c(Cl)ccc(F)c1Cl
4. Cc1cccc(-c2[nH]c(CNc3ccccc3F)nc2-c2ccc3ncnn3c2)n1
5. C#Cc1cccc(Nc2ncnc3cc(OCCOC)c(OCCOC)cc23)c1

Output:
0.994
0.819
0.872
0.849
1.01

---

System: RD
Test: relative viability vs DMSO control (72 h) (fraction); higher = more viable cells
Settings: 0.01372 µM
Would you mind telling me the reported relative viability of each entry?

Reference set, count: 2
ENTRY_SMILES: Cc1cc(Nc2ncc(Cl)c(Nc3ccccc3S(=O)(=O)C(C)C)n2)c(OC(C)C)cc1C1CCNCC1
READING: 1.03
//
ENTRY_SMILES: NC(=O)c1cnc2[nH]ccc2c1N[C@@H]1[C@@H]2CC3C[C@H]1C[C@@](O)(C3)C2
READING: 1.03

relative viability in this record for FC(F)(F)c1ccc(CNc2ccc(Cc3c[nH]c4ncc(Cl)cc34)cn2)cn1 : 1.13

---

Would you mind telling me the reported relative viability of each entry?
Tested on: G401
Experiment: relative viability vs DMSO control (72 h) (fraction); higher = more viable cells
Settings: 0.1235 µM
One number for each entry.

Reference set, count: 5
ENTRY_SMILES: N#CCC1(n2cc(-c3ncnc4[nH]ccc34)cn2)CN(C2CCN(C(=O)c3ccnc(C(F)(F)F)c3F)CC2)C1
PROPERTY: relative viability
READING: 0.902
--
ENTRY_SMILES: Cc1ccc(NC(=O)c2ccc(CN3CCN(C)CC3)cc2)cc1Nc1nccc(-c2cccnc2)n1
PROPERTY: relative viability
READING: 0.951
--
ENTRY_SMILES: Cc1cccc(-c2[nH]c(CNc3ccccc3F)nc2-c2ccc3ncnn3c2)n1
PROPERTY: relative viability
READING: 0.95
--
ENTRY_SMILES: CO[C@H]1C[C@@H]2CC[C@@H](C)[C@@](O)(O2)C(=O)C(=O)N2CCCC[C@H]2C(=O)O[C@H]([C@H](C)C[C@@H]2CC[C@@H](O)[C@H](OC)C2)CC(=O)[C@H](C)/C=C(\C)[C@@H](O)[C@@H](OC)C(=O)[C@H](C)C[C@H](C)/C=C/C=C/C=C/1C
PROPERTY: relative viability
READING: 0.687
--
ENTRY_SMILES: COc1cc2ncnc(Nc3cccc(Cl)c3F)c2cc1OC(=O)N1CCN(C)C[C@H]1C
PROPERTY: relative viability
READING: 1.04

relative viability in this record for Cc1cn(-c2cc(NC(=O)c3ccc(C)c(Nc4nccc(-c5cccnc5)n4)c3)cc(C(F)(F)F)c2)cn1 : 0.995

---

System: HT1080
Assay: relative viability vs DMSO control (72 h) (fraction); higher = more viable cells
Conditions: 0.3704 µM
PROPERTY: relative viability
Numbers only.

Count: 4. Required value per item: relative viability.
1. CCN(CCCOc1ccc2c(Nc3cc(CC(=O)Nc4cccc(F)c4)[nH]n3)ncnc2c1)CCOP(=O)(O)O [Barasertib]
2. Cc1c(F)cc(C(=O)NC2CC2)cc1-c1ccc(C(=O)NCC(C)(C)C)cn1 [Losmapimod]
3. N#CCC1(n2cc(-c3ncnc4[nH]ccc34)cn2)CN(C2CCN(C(=O)c3ccnc(C(F)(F)F)c3F)CC2)C1 [Itacitinib]
4. COc1cc2c(Oc3ccc4[nH]c(C)cc4c3F)ccnc2cc1OCC1(N)CC1 [Anlotinib]

Output:
[0.89, 1.13, 1, 1.08]

---

Tested on: RD-ES
Assay: relative viability vs DMSO control (72 h) (fraction); higher = more viable cells
Details: 0.00017 µM
PROPERTY: relative viability

Reference set, count: 4
ENTRY_SMILES: C1=N/C2=N/c3ccc(OCCN4CCCC4)c(c3)COC/C=C/COCc3cccc(c3)C(=C1)N2
relative viability: 1

ENTRY_SMILES: Cc1cc(Nc2ncc(Cl)c(Nc3ccccc3S(=O)(=O)C(C)C)n2)c(OC(C)C)cc1C1CCNCC1
relative viability: 0.94

ENTRY_SMILES: NC(=O)c1cnc2[nH]ccc2c1N[C@@H]1[C@@H]2CC3C[C@H]1C[C@@](O)(C3)C2
relative viability: 0.973

ENTRY_SMILES: COc1cc(OC)cc(N(CCNC(C)C)c2ccc3ncc(-c4cnn(C)c4)nc3c2)c1
relative viability: 0.963

Count: 4. Required value per item: relative viability.
1. C#Cc1cccc(Nc2ncnc3cc(OCCOC)c(OCCOC)cc23)c1
2. FC(F)(F)c1ccc(CNc2ccc(Cc3c[nH]c4ncc(Cl)cc34)cn2)cn1
3. COc1cc(Nc2c(C#N)cnc3cc(OCCCN4CCN(C)CC4)c(OC)cc23)c(Cl)cc1Cl
4. CCCS(=O)(=O)N[C@H]1C[C@@H](N(C)c2ncnc3[nH]ccc23)C1

Output:
1. 0.971
2. 0.973
3. 0.965
4. 0.988

---

Would you mind telling me the reported relative viability of each entry?
Test system: KHOS-240S
Test: relative viability vs DMSO control (72 h) (fraction); higher = more viable cells
Settings: 0.00051 µM
Give bare numbers.

Reference set, count: 2
ENTRY_SMILES: COc1cc(Nc2c(C#N)cnc3cc(OCCCN4CCN(C)CC4)c(OC)cc23)c(Cl)cc1Cl
PROPERTY: relative viability
READING: 1.08
//
ENTRY_SMILES: Cc1cc(Nc2ncc(Cl)c(Nc3ccccc3S(=O)(=O)C(C)C)n2)c(OC(C)C)cc1C1CCNCC1
PROPERTY: relative viability
READING: 0.992

Consider the record given below.
relative viability in this record for CCN(CCCOc1ccc2c(Nc3cc(CC(=O)Nc4cccc(F)c4)[nH]n3)ncnc2c1)CCOP(=O)(O)O : 1.02
